Target: T1, Human CD228 protein (human, UniProt P08582 20-708, limits assumed)
T1 construct: Recombinant protein made in CHO cells, purified over a Ni column; The printed entry begins with the leader (MRGPSG...) and ends with ten His; also called hCD228; CD228-His protein
T1 sequence: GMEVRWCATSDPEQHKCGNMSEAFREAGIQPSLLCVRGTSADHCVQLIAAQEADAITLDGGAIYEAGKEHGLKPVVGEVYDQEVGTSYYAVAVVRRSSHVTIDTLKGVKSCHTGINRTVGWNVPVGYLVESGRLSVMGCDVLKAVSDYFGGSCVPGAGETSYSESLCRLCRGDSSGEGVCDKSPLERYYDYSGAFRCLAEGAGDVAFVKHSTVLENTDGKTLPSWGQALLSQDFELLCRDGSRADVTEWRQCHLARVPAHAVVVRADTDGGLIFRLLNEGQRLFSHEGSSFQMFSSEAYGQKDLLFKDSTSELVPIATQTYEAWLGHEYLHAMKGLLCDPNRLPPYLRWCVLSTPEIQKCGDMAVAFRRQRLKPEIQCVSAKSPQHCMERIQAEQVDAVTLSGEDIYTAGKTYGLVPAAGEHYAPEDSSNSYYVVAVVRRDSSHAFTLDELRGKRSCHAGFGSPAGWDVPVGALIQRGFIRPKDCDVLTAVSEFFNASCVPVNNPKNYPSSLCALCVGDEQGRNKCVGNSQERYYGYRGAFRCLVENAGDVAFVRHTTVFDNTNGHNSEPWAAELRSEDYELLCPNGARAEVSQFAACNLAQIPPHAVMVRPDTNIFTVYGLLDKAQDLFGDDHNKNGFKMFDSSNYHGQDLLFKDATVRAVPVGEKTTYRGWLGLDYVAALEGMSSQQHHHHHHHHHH
Assay: Octet competition on His-chip CD228; competitor: CA518
Recorded competition (1-response value/blank value) for the following binders
reported.property: competition (1-response value/blank value) (%)

binder	u	reported.value
CA149 (antibody, human IgG1, kappa, V domains shown, Intact IgG1; also called CA149 antibody) VH: EVQLVESGGGVVQPGRSLRLSCAASGFTFSSYAMHWVRQAPGKGLEWVAVISFDGSNKYYTDSVKGRFTISRDNSKNTLYLQMNSLRAEDTAVYYCAREVPYYYGSGPFDYWGQGTLVTVSS VL: EIVLTQSPATLSVSPGERATLSCRASQSVSSNLAWYQQKPGQAPRHLIDGASSRASGIPDRFSGSGSGTDFTLTISRLEPEDFAVYYCQQYGSSPPFTFGPGTKVDIKR	%	98
CA185 (antibody, human IgG1, kappa, V domains shown, Intact IgG1) VH: EVQLVESGGGVVQPGRSLRLSCAASGFTFSSYAMHWVRQAPGKGLEWVAVISYDGSNKYYADSVKGRFTISRDNSKNTLYLQMNSLRAEDTAVYYCAREVPYYYGSGPFDYWGQGTLVTVSS VL: EIVLTQSPGTLSLSPGERATLSCRASQSVSSSSLAWYQQKPGQAPRHLIDGASSRASGIPDRFSGSGSGTDFTLTISRLEPEDFAVYYCQQYGSSYTFGQGTKVDIKR	%	99
CA67 (antibody, human IgG1, kappa, V domains shown, Intact IgG1) VH: EVQLVESGGGVVQPGRSLRLSCAASGFTFSSYAMHWVRQAPGKGLEWVAVISYDGSNKYYADSVKGRFTISRDNSKNTLYLQMNSLRAEDTAVYYCARDVYHYGSRSPYYYGMDVWGQGTTVTVSS VL: DIQMTQSPSSLSASVGDRVTITCRASQAISNYLAWYQQKPGKVPKLLIYAASTLHPGVPSRFSGSGSGTDFTLTISSLQPEDVATYYCQKYNSAPFTFGPGTKVDIKR	%	103
CA518 (antibody, human IgG1, kappa, V domains shown, Intact IgG1) VH: EVQLVESGGGVVQPGRSLRLSCAASGFTFSSYAMHWVRQAPGKGLEWVAVISYDGSNKYHADSVKGRFTISRDNSKNTLFLQMNSLRAEDTAVYYCVRDVYHYGSRSPYYYGMDVWGQGTTVTVSS VL: DIQMTQSPSSVSASVGDRVTITCRASQGISSWLAWYQQKPGKAPKLLIYAASSLQSGVPSRFSGSGSGTDFTLTISSLQPEDVATYYCQKYNSAPFTFGPGTKVDIKR	%	101
reference antibody hL49 (antibody, human IgG1, kappa, V domains shown, also called H149; hL49 analogy) VH: QVQLQESGPGLVKPSETLSLTCTVSGDSITSGYWNWIRQPPGKGLEYIGYISDSGITYYNPSLKSRVTISRDTSKNQYSLKLSSVTAADTAVYYCARRTLATYYAMDYWGQGTLVTVSS VL: DFVMTQSPLSLPVTLGQPASISCRASQSLVHSDGNTYLHWYQQRPGQSPRLLIYRVSNRFSGVPDRFSGSGSGTDFTLKISRVEAEDVGVYYCSQSTHVPPTFGQGTKLEIKR	%	-3
BA352 (antibody, human IgG1, kappa, V domains shown, Intact IgG1) VH: EVQLVESGGGVVQPGRSLRLSCAASGFTFSSYAMHWVRQAPGKGLEWVAVISYDGSNKYYADSVKGRFTISRDNSKNTLYLQMNSLRAEDTAVYYCARGPYLAAAGTALTFDIWGQGTMVTVSS VL: DIQMTQSPSAMSASVGDRVTITCRASQGINNYLAWFQQKPGKVPKRLIYAASSLQSGVPSRFSGSGSGTEFTLTISSLQPEDFATYYCLQHNSYPFTFGPGTKVDIKR	%	-4
